Target: TRIM24 (Homo sapiens, UniProt O15164)
Sequence (O15164 whole entry): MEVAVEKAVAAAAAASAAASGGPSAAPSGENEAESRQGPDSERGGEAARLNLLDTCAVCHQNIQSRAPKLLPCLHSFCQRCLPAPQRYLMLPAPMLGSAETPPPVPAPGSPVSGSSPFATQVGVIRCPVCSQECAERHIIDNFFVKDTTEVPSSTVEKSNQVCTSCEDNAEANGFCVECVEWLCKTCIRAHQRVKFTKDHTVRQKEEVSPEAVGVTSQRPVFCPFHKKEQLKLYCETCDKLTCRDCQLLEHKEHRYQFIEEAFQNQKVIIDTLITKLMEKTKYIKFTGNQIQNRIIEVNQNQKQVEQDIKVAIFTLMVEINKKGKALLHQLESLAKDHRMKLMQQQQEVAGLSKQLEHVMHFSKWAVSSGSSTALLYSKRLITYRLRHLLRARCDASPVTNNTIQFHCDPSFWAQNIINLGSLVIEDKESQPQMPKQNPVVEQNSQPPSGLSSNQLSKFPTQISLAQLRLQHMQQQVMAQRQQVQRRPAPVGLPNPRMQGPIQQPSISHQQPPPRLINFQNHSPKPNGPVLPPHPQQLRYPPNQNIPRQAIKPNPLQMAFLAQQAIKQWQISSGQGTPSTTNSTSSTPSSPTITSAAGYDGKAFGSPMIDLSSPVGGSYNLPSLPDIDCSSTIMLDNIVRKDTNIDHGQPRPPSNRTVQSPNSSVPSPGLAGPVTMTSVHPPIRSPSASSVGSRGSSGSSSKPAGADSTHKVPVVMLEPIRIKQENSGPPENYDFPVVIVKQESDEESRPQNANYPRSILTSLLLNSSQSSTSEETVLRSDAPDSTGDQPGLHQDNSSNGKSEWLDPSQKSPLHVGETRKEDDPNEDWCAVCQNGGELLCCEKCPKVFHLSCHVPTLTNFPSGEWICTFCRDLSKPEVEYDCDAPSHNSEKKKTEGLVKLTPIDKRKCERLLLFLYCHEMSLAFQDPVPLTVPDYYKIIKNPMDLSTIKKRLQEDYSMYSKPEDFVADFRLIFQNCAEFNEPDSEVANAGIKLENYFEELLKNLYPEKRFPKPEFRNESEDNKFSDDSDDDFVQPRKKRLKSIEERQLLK
Test: AlphaScreen binding assay for TRIM24 (counter-screening assay)
Conditions: compounds shown in FIG. 14A (Table 8); read-out: TRIM 24 IC50
Endpoint Label: IC50 (nM)

> print(dat)
                                   compound  endpoint.label  reported.value
1  Cc1nc[nH]c1-c1nc2ccc(C(=O)NN)cn2c1NCCN1CCOCC1 [pck-9295-134]            IC50             304
2  COc1ccc(CCNc2c(-c3cn(S(=O)(=O)c4ccc(C)cc4)c4ccccc34)nc3ccccn23)cc1OC [pck-9295-174]            IC50             584
3  COC(=O)c1ccc2nc(-c3nc[nH]c3C)c(NCCN3CCOCC3)n2c1 [pck-9295-060]            IC50             308

1: COc1ccc(CCNc2c(-c3nc(C)n4ccccc34)nc3ccccn23)cc1OC [pck-9295-173]
2: COC(=O)c1ccc2nc(-c3cn(S(=O)(=O)c4ccc(C)cc4)c4ccccc34)c(NCc3ccccc3)n2c1 [pck-9295-175]
Please state the entry with greater IC50 among 1 and 2 . I would appreciate it if you answered with the label of your choice.
1
